assay: PK study in rats; format: in vivo, SD rats; conditions: SD, rat, plasma, 8 mg/kg single oral dose
attribute.measured: AUC(0-t) (µg·h/mL)
One number for each entry, in µg·h/mL.

**Q:** State the recorded AUC(0-t) for this entry: CNCC[C@H](Oc1cccc2c1OCO2)c1cccs1
**A:** 1.37

----------
test: PK studies in beagle dogs; format: in vivo; settings: male, beagle, dog, plasma, po, 5 mg/kg, beagle dogs, 5 mg/kg oral, fed (nonfasting)
attribute.measured: AUC(0-t) (ng·h/mL)
One number for each entry, in ng·h/mL.

**Q:** State the recorded AUC(0-t) for this entry: CNCC[C@H](Oc1cccc2c1OCO2)c1cccs1 [ammoxetine]
**A:** 1950

----------
test: PK study in rats; type: in vivo, SD rats; settings: SD, rat, plasma, 20 mg/kg single oral dose
attribute.measured: AUC(0-t) (ng·h/mL)
Numbers only, in ng·h/mL.

**Q:** State the recorded AUC(0-t) for this entry: CNCC[C@H](Oc1cccc2c1OCO2)c1cccs1
**A:** 3200

----------
assay: PK study in rats; format: in vivo, SD rats; details: Sprague-Dawley (SD), rat, plasma, oral 8, 20 and 50 mg/kg, read-out: Tmax values, range
attribute.measured: Tmax

**Q:** State the recorded Tmax for this entry: CNCC[C@H](Oc1cccc2c1OCO2)c1cccs1 [ammoxetine]
**A:** 0.75 to 3.83 h

----------
assay: PK studies in beagle dogs; type: in vivo; conditions: beagle, dog, plasma, po, 5 mg/kg, beagle dogs, 5 mg/kg oral every 12 h, last time of multiple administrations; read-out: t1/2z (converted)
attribute.measured: half-life (h)
Numbers only, in h.

**Q:** State the recorded half-life for this entry: CNCC[C@H](Oc1cccc2c1OCO2)c1cccs1 [ammoxetine]
**A:** 4.13

----------
assay: PK study in rats; assay type: in vivo, SD rats; details: SD, rat, plasma, 20 mg/kg single oral dose, read-out: MRT(0-t)
attribute.measured: MRT last (h)
Give bare numbers, in h.

**Q:** State the recorded MRT last for this entry: CNCC[C@H](Oc1cccc2c1OCO2)c1cccs1 [ammoxetine]
**A:** 6.73

----------
experiment: PK studies in beagle dogs; assay type: in vivo; settings: male, beagle, dog, plasma, iv, 2 mg/kg, beagle dogs, 2 mg/kg intravenous administration; read-out: Tmax
attribute.measured: Tmax (min)
Give bare numbers, in min.

**Q:** State the recorded Tmax for this entry: CNCC[C@H](Oc1cccc2c1OCO2)c1cccs1 [ammoxetine]
**A:** 3

----------
assay: PK study in rats; type: in vivo, SD rats; settings: SD, rat, plasma, 8 mg/kg single oral dose
attribute.measured: Cmax (ng/mL)
Numbers only, in ng/mL.

**Q:** State the recorded Cmax for this entry: CNCC[C@H](Oc1cccc2c1OCO2)c1cccs1
**A:** 287

----------
experiment: PK studies in beagle dogs; format: in vivo; details: male, dog, plasma; beagle dogs, 2 mg/kg intravenous administration; volume of distribution; read-out: Vz
attribute.measured: Vd (L/kg)
Numbers only, in L/kg.

**Q:** State the recorded Vd for this entry: CNCC[C@H](Oc1cccc2c1OCO2)c1cccs1 [ammoxetine]
**A:** 7.82

----------
assay: Tissue distribution study in rats; type: in vivo; settings: rat, heart, po, 20 mg/kg, 20 mg/kg oral, heart, read-out: AUC(0→t),tissue/AUC(0→t),blood
attribute.measured: Kp
Numbers only.

**Q:** State the recorded Kp for this entry: CNCC[C@H](Oc1cccc2c1OCO2)c1cccs1
**A:** 17.1
